Data credit: ChEMBL document CHEMBL4038322

- assay text: n-octanol/PBS/sodium carbonate partition coefficient, log P of the compound after 4 hrs
- Format: physicochemical
measure: logP at 4 h

{"columns": ["compound", "value reported"],
 "data": [
  ["CCc1ccc(CC)c2c1CC(NC[C@H](O)c1ccc(O)c3[nH]c(=O)ccc13)C2", 3.03],
  ["CCc1cc2c(cc1CC)CC(NC[C@H](O)c1ccc(O)c3[nH]c(=O)ccc13)C2", 3.05],
  ["O=c1ccc2c([C@@H](O)CNC3Cc4ccccc4C3)ccc(O)c2[nH]1", 1.55],
  ["OCc1cc(C(O)CNCCCCCCOCCCCc2ccccc2)ccc1O (centres undefined)", 3.08]
]}

---

This section presents compounds with their documented CHI values.
- assay text: Lipophilicity of the compound assessed as capacity factor (CHI IAM7.4) at pH 7.4 by chromatographic analysis
- Format: physicochemical
- condition notes: buffer
measure: CHI

{"columns": ["compound", "value reported"],
 "data": [
  ["CCc1cc2c(cc1CC)CC(NC[C@H](O)c1ccc(O)c3[nH]c(=O)ccc13)C2", 62.5],
  ["OCc1cc(C(O)CNCCCCCCOCCCCc2ccccc2)ccc1O (centres undefined)", 56.7],
  ["O=c1ccc2c([C@@H](O)CNC3Cc4ccccc4C3)ccc(O)c2[nH]1", 41.6],
  ["CCc1ccc(CC)c2c1CC(NC[C@H](O)c1ccc(O)c3[nH]c(=O)ccc13)C2", 58.9]
]}

---

This section presents molecules with their documented Activity values.
- Test system: Lipid bilayer
- assay text: Binding affinity to POPC liposome membrane assessed as 31P chemical shift anisotropy at compound to POPC molar ratio of 1:10 by NMR analysis (reference value: 28.9 ppm)

{"columns": ["molecule", "Activity"],
 "data": [
  ["OCc1cc(C(O)CNCCCCCCOCCCCc2ccccc2)ccc1O (stereo not given)", "32 to 33.6 ppm"],
  ["O=c1ccc2c([C@@H](O)CNC3Cc4ccccc4C3)ccc(O)c2[nH]1", "32 to 33.6 ppm"],
  ["CCc1ccc(CC)c2c1CC(NC[C@H](O)c1ccc(O)c3[nH]c(=O)ccc13)C2", "32 to 33.6 ppm"],
  ["CCc1cc2c(cc1CC)CC(NC[C@H](O)c1ccc(O)c3[nH]c(=O)ccc13)C2", "32 to 33.6 ppm"],
  ["COc1ccc(CC(C)NCC(O)c2ccc(O)c(NC=O)c2)cc1 (stereo not given)", "32 to 33.6 ppm"]
]}
